Test system: MCF7
ASSAY: Cytotoxicity against doxorubicin-resistant human MCF7 cells under oxic condition assessed as growth inhibition after 74 hrs by sulforhodamine B assay
Format: functional, cell-based
EXPERIMENTAL_CONTEXT: MCF7, 74 h
Counter-ions that a name gives are not always drawn.
Exercise: state measured IC50 for each of the molecules provided.
Note: unit µM is implicit; provide only the numeric part.

Request: Request the reported IC50 associated with O=C1c2c(O)ccc(O)c2C(=O)c2c(NCCNCCO)ccc(NCCNCCO)c21 [MITOXANTRONE HYDROCHLORIDE]
Response: 4.7

Request: Please do the same for `CN(C)CCNc1ccc2c3c(nn2CCN(C)C)-c2cnccc2C(=O)c13` as well.
Response: 1

====

Test system: LoVo
ASSAY: Cytotoxicity against human LoVo cells under hypoxic condition assessed as growth inhibition after 74 hrs by sulforhodamine B assay
Type: functional, cell-based
Where a name gives a salt, the structure may show the parent alone.
Exercise: state measured IC50 for each of the compounds provided.
Note: unit nM is implicit; provide only the numeric part.

Request: Request the reported IC50 associated with O=C1c2c(O)ccc(O)c2C(=O)c2c(NCCNCCO)ccc(NCCNCCO)c21 [MITOXANTRONE HYDROCHLORIDE]
Response: 900

Request: Please do the same for `CN(C)CCNc1ccc2c3c(nn2CCN(C)C)-c2cnccc2C(=O)c13` as well.
Response: 3300

Request: Please do the same for `C[N+](C)([O-])CCNc1ccc2c3c(nn2CC[N+](C)(C)[O-])-c2cnccc2C(=O)c13` as well.
Response: 1500
